The reported numbers originate from ChEMBL document CHEMBL2176970.

assayed.target: Cytochrome P450 2C8 (Homo sapiens)
Sequence (P10632 whole entry): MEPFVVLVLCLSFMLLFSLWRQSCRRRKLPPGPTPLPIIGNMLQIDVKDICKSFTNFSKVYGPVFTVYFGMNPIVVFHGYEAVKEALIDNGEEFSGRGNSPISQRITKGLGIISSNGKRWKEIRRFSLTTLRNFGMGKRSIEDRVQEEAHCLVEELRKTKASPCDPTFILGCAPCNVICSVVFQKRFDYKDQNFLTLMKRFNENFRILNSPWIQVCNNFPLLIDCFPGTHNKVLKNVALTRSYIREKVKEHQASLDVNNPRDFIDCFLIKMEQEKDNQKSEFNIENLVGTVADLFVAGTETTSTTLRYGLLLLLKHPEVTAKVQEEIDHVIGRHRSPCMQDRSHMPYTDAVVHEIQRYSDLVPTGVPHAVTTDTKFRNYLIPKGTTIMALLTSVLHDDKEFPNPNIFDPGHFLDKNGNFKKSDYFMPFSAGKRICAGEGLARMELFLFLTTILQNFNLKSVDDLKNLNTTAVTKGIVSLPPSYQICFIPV
pIC50: −log10 of the molar value.
assay.readout: pIC50

Nc1ncccc1-c1nc2cc(-c3cccnc3)cnc2n1-c1ccc(CNC(=O)c2ccccc2)cc1
< 5.00
Nc1ncccc1-c1nc2cccnc2n1-c1ccc(CNC(=O)c2ccccc2)cc1
< 5.00

[ask] Query: pIC50; subject: `CC(=O)Nc1cccc(-c2ccc3nc(-c4cccnc4N)n(-c4ccc(CNC(=O)c5cccc(F)c5)cc4)c3n2)c1`
[reply] 6.00

====

Reported IC50 for target or system Cytochrome P450 2C9 (Homo sapiens, UniProt P11712), by entry.

Nc1ncccc1-c1nc2cccnc2n1-c1ccc(CNC(=O)c2ccccc2)cc1
> 10000 nM

The record that follows has no IC50 shown yet.
[ask] Request - read-out IC50 | tested on Cytochrome P450 2C9 (Homo sapiens, UniProt P11712) | compound `CC(=O)Nc1cccc(-c2ccc3nc(-c4cccnc4N)n(-c4ccc(CNC(=O)c5cccc(F)c5)cc4)c3n2)c1`
[reply] 1000 nM

====

Recorded IC50 for the following molecules
assayed.target: Cytochrome P450 1A2 (Homo sapiens)
Sequence (P05177 whole entry): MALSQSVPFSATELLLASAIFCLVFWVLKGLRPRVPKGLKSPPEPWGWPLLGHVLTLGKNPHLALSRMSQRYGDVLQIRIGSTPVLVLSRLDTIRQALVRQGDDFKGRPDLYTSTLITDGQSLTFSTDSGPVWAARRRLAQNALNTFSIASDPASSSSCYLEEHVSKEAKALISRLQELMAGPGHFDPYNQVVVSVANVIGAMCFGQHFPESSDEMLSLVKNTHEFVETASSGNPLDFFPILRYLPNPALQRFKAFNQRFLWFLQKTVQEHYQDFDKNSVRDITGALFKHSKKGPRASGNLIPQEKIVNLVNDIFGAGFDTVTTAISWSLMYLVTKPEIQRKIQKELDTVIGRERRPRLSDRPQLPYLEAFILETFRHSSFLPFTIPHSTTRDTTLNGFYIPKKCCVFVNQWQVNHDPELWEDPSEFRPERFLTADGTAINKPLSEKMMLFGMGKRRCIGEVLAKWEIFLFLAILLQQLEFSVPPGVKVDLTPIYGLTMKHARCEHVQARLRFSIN

[ask] Request - read-out IC50 | tested on Cytochrome P450 1A2 (Homo sapiens) | molecule `Nc1ncccc1-c1nc2cccnc2n1-c1ccc(CNC(=O)c2ccccc2)cc1`
[reply] > 10 µM

[ask] Request - read-out IC50 | tested on Cytochrome P450 1A2 (Homo sapiens) | molecule `CC(=O)Nc1cccc(-c2ccc3nc(-c4cccnc4N)n(-c4ccc(CNC(=O)c5cccc(F)c5)cc4)c3n2)c1`
[reply] > 10 µM

====

protocol.details: Drug level in human AN3CA cells xenografted NCr mouse tumor at 100 mg/kg, po after 2 hrs
Format: ADME, organism-based, Neoplasm, AN3-CA
Set-up: dose 100 mg/kg, route oral
measurement.parameters: read-out: Drug uptake
assay.readout: concentration at 2 h (µM)
Give a bare numeral; the unit µM is implied.

[ask] Query: concentration at 2 h; subject: `Nc1ncccc1-c1nc2cc(-c3cccnc3)cnc2n1-c1ccc(CNC(=O)c2ccccc2)cc1`
[reply] 8.4

====

protocol.details: Half life in human liver microsomes at 1 uM by LC/MS/MS
Assay type: ADME, Microsome
Recorded half-life at 1 µM for the following compounds
Give a bare numeral; the unit min is implied.

Nc1ncccc1-c1nc2cccnc2n1-c1ccc(CNC(=O)c2ccccc2)cc1
60

The record that follows has no half-life at 1 µM shown yet.
[ask] Query: half-life at 1 µM; subject: `Nc1ncccc1-c1nc2cccnc2n1-c1ccc(CC(=O)Nc2ccccc2)cc1`
[reply] 47.6
